tested on: KM12 colon; test: NCI-60 one-dose screen, 48 h (100 = growth as untreated, 0 = no growth, -100 = all killed); conditions: 10 µM unless noted
This is part of a sample that, as a whole, favours compounds with a hit. Of some 83,000 tested, about 20% had one in any assay.
value kind: growth (%)
Express it in %; write the number only.

Solved entries:
>>> df
                                   molecule  recorded_result
0      NC(=S)N/N=C\c1nccc2c(C(F)(F)F)cccc12               16
1  Cc1nn(CCO)c(C)c1N=[N+]([O-])c1c(C)nn(CCO)c1C               81
2      Cc1cc(C)c([I+]c2c(C)cc(C)cc2C)c(C)c1            -75.9
3   Cc1nc(Sc2nc3ccc([N+](=O)[O-])cc3s2)sc1C             36.6
4                 O=C(NNc1ccccc1)OCc1ccccc1             19.8
5                  Cc1cccc2c(N)c3ccccc3nc12             9.35

Query string: Any idea what growth was measured for `Nc1ccc(C(=O)/C=C/c2ccccc2)cc1` ?
Result string: 74.2

Query string: What growth value was documented for this molecule, `Cc1ccc2cccc(OC(=O)Nc3cccc(C(F)(F)F)c3)c2n1` ?
Result string: 44.5
